Provide the recorded viability, T/C for the entries that follow.
Tested on: 138582-337-R-J1-PDC complex spheroid viability
Experiment: Anticancer human tumor 138582-337-R-J1-PDC patient-derived Merkel cell tumor cell line growth inhibition
Conditions: second compound 10 µM; first compound 0.1 µM; stronger effect = lower value
Write down the numeric answer in % and omit the unit.

What value of measured viability, T/C is listed for CC1COCCN1c1cc(C2(S(C)(=N)=O)CC2)nc(-c2ccnc3[nH]ccc23)n1 (stereo unspecified) + NC1CCC(NC2CC2c2ccccc2)CC1 ?
88.1

Ok, now O=C(c1cc(Cc2n[nH]c(=O)c3ccccc23)ccc1F)N1CCN(C(=O)C2CC2)CC1 + NC1CC1c1ccc(-c2cccc(O)c2)cc1
81.1

Continue with COc1cc(Nc2ncc3c(n2)-c2ccc(Cl)cc2C(c2c(F)cccc2OC)=NC3)ccc1C(=O)O + NC1CCC(NC2CC2c2ccccc2)CC1
76.9

Same read-out for Nc1ncn(C2CC(O)C(CO)O2)c(=O)n1 (stereo unspecified) + NC1CC1c1ccc(-c2cccc(O)c2)cc1 ?
106

And then CC(C)CC(NC(=O)CNC(=O)c1cc(Cl)ccc1Cl)B1OC(=O)CC(CC(=O)O)(C(=O)O)O1 (stereo unspecified) + NC1CCC(NC2CC2c2ccccc2)CC1 , what is it?
0.96

Field entry: COc1cc(Nc2ncc3c(n2)-c2ccc(Cl)cc2C(c2c(F)cccc2OC)=NC3)ccc1C(=O)O + NC1CC1c1ccc(-c2cccc(O)c2)cc1
80.9

Now try O=C(C=Cn1cnc(-c2cc(C(F)(F)F)cc(C(F)(F)F)c2)n1)NNc1cnccn1 + NC1CCC(NC2CC2c2ccccc2)CC1 .
18

Repeat with CC1COCCN1c1cc(-c2ccnn2C)c2ccnc(-c3ccn[nH]3)c2n1 (stereo unspecified) + NC1CCC(NC2CC2c2ccccc2)CC1
67.4

Same thing, different compound: Nc1ncn(C2CC(O)C(CO)O2)c(=O)n1 (stereo unspecified) + NC1CCC(NC2CC2c2ccccc2)CC1
82.4

And for O=C(c1cc(Cc2n[nH]c(=O)c3ccccc23)ccc1F)N1CCN(C(=O)C2CC2)CC1 + NC1CCC(NC2CC2c2ccccc2)CC1 ?
104

Request: Cn1ncnc1C1c2n[nH]c(=O)c3cc(F)cc(c23)NC1c1ccc(F)cc1 (stereo unspecified) + NC1CCC(NC2CC2c2ccccc2)CC1
81.5

Try the compound CC1COCCN1c1cc(C2(S(C)(=N)=O)CC2)nc(-c2ccnc3[nH]ccc23)n1 (stereo unspecified) + NC1CC1c1ccc(-c2cccc(O)c2)cc1
87.6

Moving on to the next compound: CC(C)c1c(-c2ccccc2)nc2c(C#N)c[nH]n2c1=O + NC1CC1c1ccc(-c2cccc(O)c2)cc1
90.9

Let us now turn to CC(C)c1c(-c2ccccc2)nc2c(C#N)c[nH]n2c1=O + NC1CCC(NC2CC2c2ccccc2)CC1
82.7

Can you handle CC[C@@]1(O)C(=O)OCc2c1cc1n(c2=O)Cc2cc3c(CN(C)C)c(O)ccc3nc2-1 + NC1CCC(NC2CC2c2ccccc2)CC1 next?
70.7

Here is the next compound: O=C(C=Cn1cnc(-c2cc(C(F)(F)F)cc(C(F)(F)F)c2)n1)NNc1cnccn1 + NC1CC1c1ccc(-c2cccc(O)c2)cc1
35.1

// repeat for CC(C)CC(NC(=O)C(Cc1ccccc1)NC(=O)c1cnccn1)B(O)O (stereo unspecified) + NC1CCC(NC2CC2c2ccccc2)CC1 and report
0.24

Input CC(C)CC(NC(=O)C(Cc1ccccc1)NC(=O)c1cnccn1)B(O)O (stereo unspecified) + NC1CC1c1ccc(-c2cccc(O)c2)cc1
0.55

Now give it for COc1ccc([C@@H](O)c2cc(-c3ncnc4cc(N5CCOCC5)ccc34)c(F)cc2Cl)nn1 + NC1CCC(NC2CC2c2ccccc2)CC1 too.
72.5

Consider next the compound CC1(C)CCC(CN2CCN(c3ccc(C(=O)NS(=O)(=O)c4ccc(NCC5CCOCC5)c([N+](=O)[O-])c4)c(Oc4cnc5[nH]ccc5c4)c3)CC2)=C(c2ccc(Cl)cc2)C1 + NC1CCC(NC2CC2c2ccccc2)CC1 in the same way.
88.1

Could you do the same for CC(C)CC(NC(=O)CNC(=O)c1cc(Cl)ccc1Cl)B1OC(=O)CC(CC(=O)O)(C(=O)O)O1 (stereo unspecified) + NC1CC1c1ccc(-c2cccc(O)c2)cc1 , please?
0.27

Again, but for Cn1ncnc1C1c2n[nH]c(=O)c3cc(F)cc(c23)NC1c1ccc(F)cc1 (stereo unspecified) + NC1CC1c1ccc(-c2cccc(O)c2)cc1
81.2

Consider next the compound CC1COCCN1c1cc(-c2ccnn2C)c2ccnc(-c3ccn[nH]3)c2n1 (stereo unspecified) + NC1CC1c1ccc(-c2cccc(O)c2)cc1 in the same way.
46.2

Item: COc1ccc([C@@H](O)c2cc(-c3ncnc4cc(N5CCOCC5)ccc34)c(F)cc2Cl)nn1 + NC1CC1c1ccc(-c2cccc(O)c2)cc1
90.6

And then CC1(C)CCC(CN2CCN(c3ccc(C(=O)NS(=O)(=O)c4ccc(NCC5CCOCC5)c([N+](=O)[O-])c4)c(Oc4cnc5[nH]ccc5c4)c3)CC2)=C(c2ccc(Cl)cc2)C1 + NC1CC1c1ccc(-c2cccc(O)c2)cc1 , what is it?
69.8

Likewise for CC[C@@]1(O)C(=O)OCc2c1cc1n(c2=O)Cc2cc3c(CN(C)C)c(O)ccc3nc2-1 + NC1CC1c1ccc(-c2cccc(O)c2)cc1 ?
67.8

----------
Test system: 138582-337-R-J1-PDC complex spheroid viability
Assay: Anticancer human tumor 138582-337-R-J1-PDC cell line growth inhibition;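 also: spheroids exposed to agents for 7 days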;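 as to viability, T/C: 100% = DMSO vehicle control viability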
Conditions: second compound 0.1 µM; first compound 3.16 µM; stronger effect = lower value
observed_property: viability, T/C (%)
The reply should contain only the number, in %.

Given CC(C)c1c(-c2ccccc2)nc2c(C#N)c[nH]n2c1=O + NC1CCC(NC2CC2c2ccccc2)CC1 , state its recorded viability, T/C.
86

And the next one, O=C(c1cc(Cc2n[nH]c(=O)c3ccccc23)ccc1F)N1CCN(C(=O)C2CC2)CC1 + NC1CCC(NC2CC2c2ccccc2)CC1 ?
84.3

Can you handle O=C(c1cc(Cc2n[nH]c(=O)c3ccccc23)ccc1F)N1CCN(C(=O)C2CC2)CC1 + NC1CC1c1ccc(-c2cccc(O)c2)cc1 next?
58.6

Consider next the compound CC(C)c1c(-c2ccccc2)nc2c(C#N)c[nH]n2c1=O + NC1CC1c1ccc(-c2cccc(O)c2)cc1 in the same way.
54.4

Now this one: COc1ccc([C@@H](O)c2cc(-c3ncnc4cc(N5CCOCC5)ccc34)c(F)cc2Cl)nn1 + NC1CCC(NC2CC2c2ccccc2)CC1
44.9

Then CC1(C)CCC(CN2CCN(c3ccc(C(=O)NS(=O)(=O)c4ccc(NCC5CCOCC5)c([N+](=O)[O-])c4)c(Oc4cnc5[nH]ccc5c4)c3)CC2)=C(c2ccc(Cl)cc2)C1 + NC1CCC(NC2CC2c2ccccc2)CC1 ?
90.7

// repeat for CC1COCCN1c1cc(C2(S(C)(=N)=O)CC2)nc(-c2ccnc3[nH]ccc23)n1 (stereo not given) + NC1CC1c1ccc(-c2cccc(O)c2)cc1 and report
54.2

Now this one: COc1ccc([C@@H](O)c2cc(-c3ncnc4cc(N5CCOCC5)ccc34)c(F)cc2Cl)nn1 + NC1CC1c1ccc(-c2cccc(O)c2)cc1
38.2

And the next one, CC1(C)CCC(CN2CCN(c3ccc(C(=O)NS(=O)(=O)c4ccc(NCC5CCOCC5)c([N+](=O)[O-])c4)c(Oc4cnc5[nH]ccc5c4)c3)CC2)=C(c2ccc(Cl)cc2)C1 + NC1CC1c1ccc(-c2cccc(O)c2)cc1 ?
66.6

Follow-up entry: CC1COCCN1c1cc(C2(S(C)(=N)=O)CC2)nc(-c2ccnc3[nH]ccc23)n1 (stereo not given) + NC1CCC(NC2CC2c2ccccc2)CC1
63.4

----------
System: 138582-337-R-J1-PDC complex spheroid viability
Assay: Anticancer human tumor 138582-337-R-J1-PDC cell line growth inhibition;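 also: spheroids exposed to agents for 7 days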
Settings: curve of first compound; second compound 3.16 µM
pIC50: −log10 of the molar value.
So I've got a bunch of compounds here, and I need their pIC50 values.

Field request: pIC50 | item: CC[C@@]1(O)C(=O)OCc2c1cc1n(c2=O)Cc2cc3c(CN(C)C)c(O)ccc3nc2-1 + NC1CCC(NC2CC2c2ccccc2)CC1
< 7.00

Do the same for CC[C@@]1(O)C(=O)OCc2c1cc1n(c2=O)Cc2cc3c(CN(C)C)c(O)ccc3nc2-1 + NC1CC1c1ccc(-c2cccc(O)c2)cc1 please
< 7.00

Same question, CCN(c1cc(-c2ccc(CN3CCOCC3)cc2)cc(C(=O)NCc2c(C)cc(C)[nH]c2=O)c1C)C1CCOCC1 + NC1CC1c1ccc(-c2cccc(O)c2)cc1 this time
< 5.52

Same question for Nc1ncn(C2CC(O)C(CO)O2)c(=O)n1 (stereo not drawn) + NC1CCC(NC2CC2c2ccccc2)CC1 please.
< 6.00

Would you mind doing CC1COCCN1c1cc(C2(S(C)(=N)=O)CC2)nc(-c2ccnc3[nH]ccc23)n1 (stereo not drawn) + NC1CCC(NC2CC2c2ccccc2)CC1 as well?
< 5.00

What about this compound? Nc1ccn(C2OC(CO)C(O)C2(F)F)c(=O)n1 (stereo not drawn) + NC1CC1c1ccc(-c2cccc(O)c2)cc1
< 6.52

What would you report for Cn1ncnc1C1c2n[nH]c(=O)c3cc(F)cc(c23)NC1c1ccc(F)cc1 (stereo not drawn) + NC1CC1c1ccc(-c2cccc(O)c2)cc1 ?
< 7.00

// next record O=C(c1cc(Cc2n[nH]c(=O)c3ccccc23)ccc1F)N1CCN(C(=O)C2CC2)CC1 + NC1CC1c1ccc(-c2cccc(O)c2)cc1
< 5.00

These measurements were taken from PubChem BioAssay AID1918931.
